# ASSAY_SYSTEM: Bifunctional 3'-5' exonuclease/ATP-dependent helicase WRN (Homo sapiens) (UniProt Q14191)
# Sequence (Q14191 whole entry, looked up): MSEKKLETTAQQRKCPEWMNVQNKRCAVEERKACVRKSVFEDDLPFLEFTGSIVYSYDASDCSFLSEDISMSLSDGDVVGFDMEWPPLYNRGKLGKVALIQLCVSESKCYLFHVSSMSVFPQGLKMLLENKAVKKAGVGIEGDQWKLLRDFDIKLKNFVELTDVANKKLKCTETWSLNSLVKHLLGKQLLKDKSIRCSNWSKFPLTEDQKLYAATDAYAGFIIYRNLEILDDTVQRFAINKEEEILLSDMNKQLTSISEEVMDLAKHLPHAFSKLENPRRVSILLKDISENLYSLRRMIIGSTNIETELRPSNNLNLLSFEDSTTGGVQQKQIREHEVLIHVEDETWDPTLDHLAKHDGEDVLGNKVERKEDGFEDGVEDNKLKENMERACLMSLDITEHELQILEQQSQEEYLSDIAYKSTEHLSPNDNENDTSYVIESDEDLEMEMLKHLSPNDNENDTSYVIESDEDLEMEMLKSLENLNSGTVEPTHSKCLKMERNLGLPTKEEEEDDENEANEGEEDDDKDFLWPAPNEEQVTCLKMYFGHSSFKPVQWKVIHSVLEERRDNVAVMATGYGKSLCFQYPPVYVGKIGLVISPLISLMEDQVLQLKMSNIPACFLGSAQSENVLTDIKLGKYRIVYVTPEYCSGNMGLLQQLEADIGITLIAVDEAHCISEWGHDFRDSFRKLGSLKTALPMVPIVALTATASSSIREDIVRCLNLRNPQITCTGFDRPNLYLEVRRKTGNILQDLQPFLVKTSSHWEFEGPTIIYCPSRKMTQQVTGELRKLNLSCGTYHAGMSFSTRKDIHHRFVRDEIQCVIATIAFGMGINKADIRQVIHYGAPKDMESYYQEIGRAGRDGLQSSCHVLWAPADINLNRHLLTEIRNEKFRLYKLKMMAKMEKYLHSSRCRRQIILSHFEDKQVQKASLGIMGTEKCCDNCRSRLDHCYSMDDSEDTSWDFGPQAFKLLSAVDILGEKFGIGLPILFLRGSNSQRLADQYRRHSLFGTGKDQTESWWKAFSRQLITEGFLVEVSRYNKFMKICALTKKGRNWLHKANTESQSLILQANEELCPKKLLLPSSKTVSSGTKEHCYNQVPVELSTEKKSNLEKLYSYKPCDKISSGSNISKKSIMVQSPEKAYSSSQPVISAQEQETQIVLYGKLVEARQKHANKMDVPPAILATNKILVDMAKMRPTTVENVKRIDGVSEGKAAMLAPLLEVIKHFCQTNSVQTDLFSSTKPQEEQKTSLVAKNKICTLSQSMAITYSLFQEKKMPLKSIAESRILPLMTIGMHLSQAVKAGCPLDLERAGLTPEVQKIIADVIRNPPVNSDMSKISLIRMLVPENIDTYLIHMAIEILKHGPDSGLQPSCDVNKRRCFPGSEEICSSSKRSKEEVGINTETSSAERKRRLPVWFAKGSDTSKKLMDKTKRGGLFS
# TEST: qHTS for Inhibitors of WRN Helicase; further: nearly all actives have a fitted effect of over 55% in size
# DETAILS: WRN helicase unwinding, fluorescent forked duplex, kinetic; series mostly up to 114 µM
# From the text: Inhibition of DNA repair is proposed as a strategy for combating cancer. […] We will employ an optimized high-throughput screening assay that utilizes a fluorescence intensity modulation scheme with a fluorophore and quencher positioned near one another within a duplex deoxyoligonucleotide that contains a single forked structure. […]
About 1,700 (0.47%) of roughly 360,000 compounds were called active. Inconclusive results (about 2%) are left out. The call rests on the fitted dose curve; in most records, active means well fitted inhibition curve with a large enough effect; inconclusive means small, poorly fitted or top-dose-only effect; inactive means no such curve, though single readings can be large or run the other way. What follows is part of a selection rich in actives, with near analogues and random picks from the rest.
Your reply should match one of these outcome classes. 1.0 = active, 0.0 = inactive

Challenge: What is the recorded call for this molecule in the test? CN(CC1CCCO1)S(=O)(=O)c1ccc(C(=O)Nc2ccc([N+](=O)[O-])cc2)cc1 (stereo not given)
Response given: 0.0

Challenge: What is the recorded call for this molecule in the test? Cn1ccc(=Nc2ccc(NC(=O)c3ccc(N=c4ccn(C)c5ccc([N+](=O)[O-])cc45)cc3)cc2)cc1
Response given: 1.0

Challenge: What is the recorded call for this molecule in the test? CN1C=CC=C/C1=C1\SC(=S)N(Cc2ccccc2)C1=O
Response given: 0.0

Challenge: What is the recorded call for this molecule in the test? CC(C)c1ccc(NC(=O)CCN2C(=O)c3ccc([N+](=O)[O-])cc3C2=O)cc1
Response given: 0.0

Challenge: What is the recorded call for this molecule in the test? COc1ccc(CCNC2=C(Cl)C(=O)N(Cc3ccccc3)C2=O)cc1OC
Response given: 0.0
